Where do the numbers come from? From patent US5639783A.

# SYSTEM: m-calpain (Rattus norvegicus, UniProt Q07009)
# Construct: m-calpain was purified from rat brain; from tissue; host or cells: rat brain
# Sequence (Q07009 20-700 limits assumed): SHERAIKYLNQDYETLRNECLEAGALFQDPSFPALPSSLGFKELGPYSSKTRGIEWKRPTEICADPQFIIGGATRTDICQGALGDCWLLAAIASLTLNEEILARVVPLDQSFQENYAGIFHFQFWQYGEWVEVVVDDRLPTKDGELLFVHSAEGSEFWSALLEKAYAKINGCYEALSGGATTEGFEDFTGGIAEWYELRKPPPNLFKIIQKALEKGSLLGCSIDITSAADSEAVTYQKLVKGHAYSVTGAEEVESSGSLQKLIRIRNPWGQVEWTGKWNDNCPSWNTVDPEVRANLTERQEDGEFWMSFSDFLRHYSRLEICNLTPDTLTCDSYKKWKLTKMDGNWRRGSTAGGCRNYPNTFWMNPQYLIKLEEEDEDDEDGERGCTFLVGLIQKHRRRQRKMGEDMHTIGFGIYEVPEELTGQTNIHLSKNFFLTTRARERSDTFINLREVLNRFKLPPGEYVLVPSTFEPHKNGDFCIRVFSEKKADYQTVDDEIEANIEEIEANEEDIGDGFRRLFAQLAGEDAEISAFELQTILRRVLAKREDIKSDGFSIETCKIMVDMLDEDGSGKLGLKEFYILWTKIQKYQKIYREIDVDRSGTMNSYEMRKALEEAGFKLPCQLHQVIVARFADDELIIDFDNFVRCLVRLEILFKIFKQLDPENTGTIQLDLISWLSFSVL
# Sequence (Q64537 whole entry partner): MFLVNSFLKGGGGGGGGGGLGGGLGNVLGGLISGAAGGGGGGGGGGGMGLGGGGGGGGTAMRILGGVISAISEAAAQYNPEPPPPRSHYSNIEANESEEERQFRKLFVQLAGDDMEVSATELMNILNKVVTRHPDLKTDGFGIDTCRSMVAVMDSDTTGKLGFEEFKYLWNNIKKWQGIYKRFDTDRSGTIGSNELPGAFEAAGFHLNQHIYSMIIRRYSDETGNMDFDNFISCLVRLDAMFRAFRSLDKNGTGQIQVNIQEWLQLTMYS
# PROTOCOL_TEXT: Thiol protease inhibitory activity, m-calpain purified from rat brain
# Format: biochemical
# ASSAY_SETUP: Table 3
pIC50: −log10 of the molar value.
The compounds listed here are annotated with their pIC50.

{"SUBSTANCE_SMILES": "CCCC[C@H](NC(=O)[C@H](CC(C)C)NC(=O)COc1ccccc1Cl)C(=O)CSCc1ccco1", "SYSTEM": "m-calpain (Rattus norvegicus, UniProt Q07009)", "pIC50": 5.66}
{"SUBSTANCE_SMILES": "CCCC[C@H](NC(=O)[C@H](CC(C)C)NC(=O)COc1c(Cl)cc(Cl)cc1Cl)C(=O)CSCc1ccco1", "SYSTEM": "m-calpain (Rattus norvegicus, UniProt Q07009)", "pIC50": 5.24}
{"SUBSTANCE_SMILES": "CCCC[C@H](NC(=O)[C@H](CC(C)C)NC(=O)c1cc(=O)c2ccccc2o1)C(=O)CSCc1ccco1", "SYSTEM": "m-calpain (Rattus norvegicus, UniProt Q07009)", "pIC50": 5.04}
{"SUBSTANCE_SMILES": "CCCC[C@H](NC(=O)[C@H](CC(C)C)NC(=O)COc1ccc(F)cc1)C(=O)CSCc1ccco1", "SYSTEM": "m-calpain (Rattus norvegicus, UniProt Q07009)", "pIC50": 5.30}
{"SUBSTANCE_SMILES": "CC(C)C[C@H](NC(=O)Cc1cccc2ccccc12)C(=O)N[C@@H](Cc1ccccc1)C(=O)CSCc1ccco1", "SYSTEM": "m-calpain (Rattus norvegicus, UniProt Q07009)", "pIC50": 5.72}
{"SUBSTANCE_SMILES": "CCCC[C@H](NC(=O)[C@H](CC(C)C)NC(=O)Cc1cccc2ccccc12)C(=O)CSCc1ccco1", "SYSTEM": "m-calpain (Rattus norvegicus, UniProt Q07009)", "pIC50": 5.19}
{"SUBSTANCE_SMILES": "CSCC(=O)[C@H](CCc1ccccc1)NC(=O)[C@H](CC(C)C)NC(=O)COc1ccccc1", "SYSTEM": "m-calpain (Rattus norvegicus, UniProt Q07009)", "pIC50": 5.04}
{"SUBSTANCE_SMILES": "CC(C)C[C@H](NC(=O)OCc1ccccc1)C(=O)N[C@@H](Cc1ccccc1)C(=O)CN(C)C", "SYSTEM": "m-calpain (Rattus norvegicus, UniProt Q07009)", "pIC50": 5.14}
{"SUBSTANCE_SMILES": "CCCC[C@H](NC(=O)[C@H](CC(C)C)NC(=O)Cc1ccc(F)cc1)C(=O)CSCc1ccco1", "SYSTEM": "m-calpain (Rattus norvegicus, UniProt Q07009)", "pIC50": 4.66}
{"SUBSTANCE_SMILES": "CCCC[C@H](NC(=O)[C@H](CC(C)C)NC(=O)COc1cccc(F)c1)C(=O)CSCc1ccco1", "SYSTEM": "m-calpain (Rattus norvegicus, UniProt Q07009)", "pIC50": 4.82}
{"SUBSTANCE_SMILES": "CCCC[C@H](NC(=O)[C@H](CC(C)C)NC(=O)c1cc2ccccc2o1)C(=O)CSCc1ccco1", "SYSTEM": "m-calpain (Rattus norvegicus, UniProt Q07009)", "pIC50": 4.85}
{"SUBSTANCE_SMILES": "CCCC[C@H](NC(=O)[C@H](CC(C)C)NC(=O)c1ccc2ccccc2c1)C(=O)CSCc1ccco1", "SYSTEM": "m-calpain (Rattus norvegicus, UniProt Q07009)", "pIC50": 4.70}
{"SUBSTANCE_SMILES": "CC(C)C[C@H](NC(=O)OCc1ccccc1)C(=O)N[C@@H](CCC(=O)O)C(=O)CSCc1ccco1", "SYSTEM": "m-calpain (Rattus norvegicus, UniProt Q07009)", "pIC50": 4.72}
{"SUBSTANCE_SMILES": "CCCC[C@H](NC(=O)[C@H](CC(C)C)NC(=O)COc1ccc(Cl)cc1)C(=O)CSCc1ccco1", "SYSTEM": "m-calpain (Rattus norvegicus, UniProt Q07009)", "pIC50": 5.08}
{"SUBSTANCE_SMILES": "CCCC[C@H](NC(=O)[C@H](CC(C)C)NC(=O)COc1ccccc1)C(=O)CSCc1ccco1", "SYSTEM": "m-calpain (Rattus norvegicus, UniProt Q07009)", "pIC50": 5.48}
